tested_on: DGKα (hDGKalpha(1-735)-N-His) (Homo sapiens, UniProt P23743)
Sequence (P23743 whole entry): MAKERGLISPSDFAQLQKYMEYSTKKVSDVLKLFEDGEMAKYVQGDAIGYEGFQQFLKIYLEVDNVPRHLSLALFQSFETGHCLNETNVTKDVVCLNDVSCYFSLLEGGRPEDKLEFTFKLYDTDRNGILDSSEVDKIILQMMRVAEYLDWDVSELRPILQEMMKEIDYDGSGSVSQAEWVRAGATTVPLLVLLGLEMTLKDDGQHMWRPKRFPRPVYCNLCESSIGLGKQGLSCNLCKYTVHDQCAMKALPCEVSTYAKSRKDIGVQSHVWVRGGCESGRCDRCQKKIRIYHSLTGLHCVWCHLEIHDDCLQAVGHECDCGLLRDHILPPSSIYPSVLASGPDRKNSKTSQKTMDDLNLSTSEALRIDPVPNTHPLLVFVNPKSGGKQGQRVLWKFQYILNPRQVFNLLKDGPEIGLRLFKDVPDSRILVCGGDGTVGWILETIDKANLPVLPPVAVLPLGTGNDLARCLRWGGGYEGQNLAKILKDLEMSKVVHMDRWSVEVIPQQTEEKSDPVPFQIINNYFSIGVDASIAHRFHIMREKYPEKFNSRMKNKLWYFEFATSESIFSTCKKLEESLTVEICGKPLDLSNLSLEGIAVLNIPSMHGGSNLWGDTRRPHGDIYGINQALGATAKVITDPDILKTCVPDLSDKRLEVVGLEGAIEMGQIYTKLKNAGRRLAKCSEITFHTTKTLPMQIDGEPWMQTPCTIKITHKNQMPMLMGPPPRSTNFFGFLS
pIC50: −log10 of the molar value.
Response key: rule met means pIC50 >= 5; rule not met means pIC50 < 5.

For orientation, consider the following solved cases.
| molecule | label_class |
| --- | --- |
| N[C@H]1CS(=O)(=O)c2ccc(-c3nnc(N4CCOC(C(F)(F)F)C4)o3)cc2N(Cc2ccc(-c3noc(C(F)(F)F)n3)cc2)C1=O (stereo partly drawn) [Example 74] | rule met |
| Cn1ccc(-c2ccc(CN3C(=O)[C@@H](N)CS(=O)(=O)c4ccc(-c5nnc(C(C)(C)C)o5)cc43)cc2)n1 [Example 21] | rule not met |
| CC(C)(c1nnc(-c2ccc3c(c2)N(Cc2ccc(-c4noc(C5CC5)n4)cc2)C(=O)[C@@H](N)CS3(=O)=O)o1)C(F)(F)F [Example 167] | rule not met |
| N[C@H]1CS(=O)(=O)c2ccc(-c3nnc(N4CCOC(F)(F)C4)o3)cc2N(Cc2ccc(-c3noc(C(F)(F)F)n3)cc2)C1=O [Example 78] | rule not met |
| COc1ccc(-c2ccc(CN3C(=O)[C@@H](N)CS(=O)(=O)c4ccc(-c5nnc(N(C)CC(F)(F)F)o5)cc43)cc2)cc1 [Example 81] | rule not met |
| CC(C)(c1nnc(-c2ccc3c(c2)N(Cc2ccc(-c4ccc(OC(F)(F)F)cn4)cc2)C(=O)[C@@H](N)CS3(=O)=O)o1)C(F)(F)F [Example 165] | rule met |
| Cn1ccc(-c2ccc(CN3C(=O)[C@@H](N)CS(=O)(=O)c4cc(F)c(-c5nnc(C(C)(C)C)o5)cc43)cc2)n1 [Example 1] | rule met |
| CC(C)(C)c1nnc(-c2ccc3c(c2)N(Cc2ccc(-n4cc(C(F)(F)F)cn4)cc2)C(=O)[C@@H](N)CS3(=O)=O)o1 [Example 25] | rule met |

Challenge: pIC50 >= 5 for N[C@H]1CS(=O)(=O)c2ccc(-c3nnc(C4(N)CCC(F)(F)CC4)o3)cc2N(Cc2ccc(-c3ccc(OC(F)(F)F)cn3)cc2)C1=O [Example 178] ?
Response given: rule met

Challenge: Exam item: decide whether the reported pIC50 for COc1ccc(-c2ccc(CN3C(=O)[C@@H](N)CS(=O)(=O)c4cc(F)c(-c5noc(C6(N)COC6)n5)cc43)cc2)cc1 [Example 8] is at least 5.
Response given: rule met

Challenge: I'd appreciate it if you could say whether CC(F)(F)c1ccc(-c2ccc(CN3C(=O)[C@@H](N)CS(=O)(=O)c4ccc(-c5nnc(C(C)(C)C#N)o5)cc43)cc2)nc1 [Example 109] has pIC50 at least equal to 5.
Response given: rule met

Challenge: Check the entry CC(C)(C#N)c1nnc(-c2ccc3c(c2)N(Cc2ccc(-c4ccc(C5CC5)cn4)cc2)C(=O)[C@@H](N)CS3(=O)=O)o1 [Example 118] : does pIC50 equal or exceed 5?
Response given: rule not met

Challenge: In plain terms: is recorded pIC50 at least 5 for CC(C)(C)c1nnc(-c2ccc3c(c2)N(Cc2ccc(-n4nnc(C(F)(F)F)n4)cc2)C(=O)[C@@H](N)CS3(=O)=O)o1 [Example 90] ?
Response given: rule not met

* * *

tested_on: DGKζ (hDGKzeta(1-928)-N-His) (Homo sapiens)
pIC50: −log10 of the molar value.
We use 6 as the dividing line for pIC50: on or above the line is true, below is false.

Please review the entries below; each comes with its answer.
| compound | label_class |
| --- | --- |
| COCC1CN(c2nnc(-c3ccc4c(c3)N(Cc3ccc(-c5noc(C(F)(F)F)n5)cc3)C(=O)[C@@H](N)CS4(=O)=O)o2)CCO1 (stereo partly drawn) | false |
| CC(C)(C#N)c1nnc(-c2ccc3c(c2)N(Cc2ccc(-c4cc(OC(F)F)ccn4)cc2)C(=O)[C@@H](N)CS3(=O)=O)o1 | true |
| N[C@H]1CS(=O)(=O)c2ccc(-c3nnc(N4CCC(F)(F)CC4)o3)cc2N(Cc2ccc(-c3nc(C(F)(F)F)no3)cc2)C1=O | false |

Challenge: Please tell me: is the compound CCC(C#N)(CC)c1nnc(-c2ccc3c(c2)N(Cc2ccc(-c4ccc(OC(F)(F)F)cn4)cc2)C(=O)[C@@H](N)CS3(=O)=O)o1 at or over 6 in terms of pIC50?
Response given: false

Challenge: Test whether the compound COC(F)(c1nnc(-c2ccc3c(c2)N(Cc2ccc(-c4nnc(C5CC5)o4)cc2)C(=O)[C@@H](N)CS3(=O)=O)o1)C(F)(F)F (stereo partly drawn) records pIC50 of 6 or higher.
Response given: false

* * *

For reference, IC50 measured on DGK ζ kinase (Homo sapiens):
Value expressed in nM; do not type the unit.

| compound | IC50 (nM) |
| --- | --- |
| N[C@H]1CS(=O)(=O)c2ccc(-c3nnc(C4(N)CCCCC4)o3)cc2N(Cc2ccc(-c3noc(C(F)(F)F)n3)cc2)C1=O | 56.4 |
| CC(C)(C)c1nnc(-c2ccc3c(c2)N(Cc2ccc(-c4nnc(C(F)(F)F)o4)cc2)C(=O)[C@@H](N)CS3(=O)=O)o1 | 510 |
| CC(C)(C#N)c1nnc(-c2ccc3c(c2)N(Cc2ccc(-c4ccc(OC(F)(F)F)cn4)cc2)C(=O)[C@@H](N)CS3(=O)=O)o1 | 56.7 |

Challenge: Please report IC50 for the following compound: COc1ccc(-c2ccc(CN3C(=O)[C@@H](N)CS(=O)(=O)c4ccc(-c5nnc(N(C)CC(F)(F)F)o5)cc43)cc2)cc1
Response given: 53.5

* * *

Assay read-out IC50; system under study: DGKζ (hDGKzeta(1-928)-N-His) (Homo sapiens).
# value in µM; strip the unit string

Would you please look over these solved cases?
| compound_smiles | units_label | IC50 |
| --- | --- | --- |
| N#CC1(c2nnc(-c3ccc4c(c3)N(Cc3ccc(-c5ccc(C(F)(F)F)cn5)cc3)C(=O)[C@@H](N)CS4(=O)=O)o2)CC1 | µM | 1.5 |
| Cn1ccc(-c2ccc(CN3C(=O)[C@@H](N)CS(=O)(=O)c4ccc(-c5nnc(C(C)(C)C)o5)cc43)cc2)n1 | µM | 2.31 |

The record that follows has no IC50 shown yet.
Challenge: # return recorded IC50 for entry C[C@@](N)(c1nnc(-c2ccc3c(c2)N(Cc2ccc(-n4ccc(C(F)(F)F)n4)cc2)C(=O)[C@@H](N)CS3(=O)=O)o1)C(F)(F)F
Response given: 2.28

* * *

Let's go through some log10(IC50) measurements on DGKζ (hDGKzeta(1-928)-N-His) (Homo sapiens, UniProt Q13574) together.
Sequence (Q13574 whole entry): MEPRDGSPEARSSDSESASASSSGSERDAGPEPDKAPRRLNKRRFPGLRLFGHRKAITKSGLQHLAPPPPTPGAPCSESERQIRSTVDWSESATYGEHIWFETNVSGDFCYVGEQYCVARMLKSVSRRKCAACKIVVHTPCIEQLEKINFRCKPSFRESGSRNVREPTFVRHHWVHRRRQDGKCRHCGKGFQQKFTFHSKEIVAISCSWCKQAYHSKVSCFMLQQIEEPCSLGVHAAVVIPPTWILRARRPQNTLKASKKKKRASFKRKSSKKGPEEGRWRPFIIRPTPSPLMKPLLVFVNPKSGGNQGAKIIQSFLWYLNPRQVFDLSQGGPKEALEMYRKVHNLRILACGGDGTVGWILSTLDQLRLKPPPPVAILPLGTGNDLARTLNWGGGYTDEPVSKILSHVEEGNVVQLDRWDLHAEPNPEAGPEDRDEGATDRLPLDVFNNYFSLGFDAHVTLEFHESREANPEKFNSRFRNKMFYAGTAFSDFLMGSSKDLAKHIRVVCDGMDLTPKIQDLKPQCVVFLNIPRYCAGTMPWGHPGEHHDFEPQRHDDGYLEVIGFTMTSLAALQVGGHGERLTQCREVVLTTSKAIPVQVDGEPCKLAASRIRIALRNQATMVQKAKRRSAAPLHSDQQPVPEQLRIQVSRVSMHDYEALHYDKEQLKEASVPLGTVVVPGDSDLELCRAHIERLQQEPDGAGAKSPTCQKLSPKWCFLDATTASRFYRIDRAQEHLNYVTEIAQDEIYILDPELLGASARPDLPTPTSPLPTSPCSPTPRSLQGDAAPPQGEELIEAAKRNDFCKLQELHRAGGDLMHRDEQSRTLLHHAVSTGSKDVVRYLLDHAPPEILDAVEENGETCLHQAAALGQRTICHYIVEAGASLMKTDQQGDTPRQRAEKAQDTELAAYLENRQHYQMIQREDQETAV
Transform log10 | Measure IC50 | Unit µM

These recorded examples may help you get a feel for the data.
| molecule | value_observed |
| --- | --- |
| N[C@H]1CS(=O)(=O)c2ccc(-c3nnc(N4CCC(F)(F)CC4)o3)cc2N(Cc2ccc(-c3noc(C(F)(F)F)n3)cc2)C1=O | -0.20 |
| N[C@H]1CS(=O)(=O)c2cc(F)c(-c3nnc(N4CCOC5(CC5)C4)o3)cc2N(Cc2ccc(-c3noc(C(F)(F)F)n3)cc2)C1=O | -0.90 |
| NC(c1nnc(-c2ccc3c(c2)N(Cc2ccc(-c4noc(C(F)(F)F)n4)cc2)C(=O)[C@@H](N)CS3(=O)=O)o1)C(F)(F)F (stereo partly drawn) | 0.96 |
| C[C@@](N)(c1nnc(-c2ccc3c(c2)N(Cc2ccc(-c4noc(C(F)(F)F)n4)cc2)C(=O)[C@@H](N)CS3(=O)=O)o1)C(F)(F)F | 0.37 |
| CC(C)(C)c1nnc(-c2ccc3c(c2)N(Cc2ccc(-c4nc(C(F)(F)F)co4)cc2)C(=O)[C@@H](N)CS3(=O)=O)o1 | -0.21 |

Let us examine a further case.
Challenge: Name the recorded log10(IC50) of N[C@H]1CS(=O)(=O)c2ccc(-c3nnc(C(N)(C4CC4)C(F)(F)F)o3)cc2N(Cc2ccc(-c3noc(C4CC4)n3)cc2)C1=O (stereo partly drawn) , assay system DGKζ (hDGKzeta(1-928)-N-His) (Homo sapiens, UniProt Q13574).
Response given: -0.14

* * *

Test system: primary human T-cells
experiment: IL2 secretion measurements (24 h, CD3-stimulated T-cells, PBS counter screen)
Format: cell-based
condition_parameters: CD3 condition; normalised to DMSO (neutral) and 20 μM reference compound A1 = 100%
Parameter: Emax IL2 (% activation). Scope: all listed entries.

| compound | Emax IL2 (% activation) |
| --- | --- |
| COC(=O)N1CC(c2nnc(-c3ccc4c(c3)N(Cc3ccc(-c5noc(C(C)(C)C)n5)cc3)C(=O)[C@@H](N)CS4(=O)=O)o2)CC(F)(F)C1 (stereo partly drawn) | 109 % activation |

Challenge: Check the records and state Emax IL2 (% activation) for CC(C)(c1nnc(-c2ccc3c(c2)N(Cc2ccc(-c4noc(C5CC5)n4)cc2)C(=O)[C@@H](N)CS3(=O)=O)o1)C(F)(F)F
Response given: 279 % activation

Challenge: Give the reported value of Emax IL2 (% activation) for this record: C[C@@](N)(c1nnc(-c2ccc3c(c2)N(Cc2ccc(-c4ccc(C(F)(F)F)cn4)cc2)C(=O)[C@@H](N)CS3(=O)=O)o1)C(F)(F)F
Response given: 127 % activation
